Documented Kass × 10^6 (L/mole) Plasmin across a set of compounds
- System: Human plasmin (Homo sapiens, UniProt P00747)
- Construct: Human plasmin is purchased from Boehringer Mannheim; purchased Boehringer Mannheim, Indianapolis, Ind
- Sequence (P00747 581-810 limits assumed): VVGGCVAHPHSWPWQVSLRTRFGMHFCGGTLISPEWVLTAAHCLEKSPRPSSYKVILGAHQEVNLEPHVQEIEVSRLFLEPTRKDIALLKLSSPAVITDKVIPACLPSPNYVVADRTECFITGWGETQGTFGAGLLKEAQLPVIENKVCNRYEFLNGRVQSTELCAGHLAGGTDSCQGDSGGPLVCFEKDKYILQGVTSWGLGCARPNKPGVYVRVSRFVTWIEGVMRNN
- Sequence (P00747 97-580 partner limits assumed): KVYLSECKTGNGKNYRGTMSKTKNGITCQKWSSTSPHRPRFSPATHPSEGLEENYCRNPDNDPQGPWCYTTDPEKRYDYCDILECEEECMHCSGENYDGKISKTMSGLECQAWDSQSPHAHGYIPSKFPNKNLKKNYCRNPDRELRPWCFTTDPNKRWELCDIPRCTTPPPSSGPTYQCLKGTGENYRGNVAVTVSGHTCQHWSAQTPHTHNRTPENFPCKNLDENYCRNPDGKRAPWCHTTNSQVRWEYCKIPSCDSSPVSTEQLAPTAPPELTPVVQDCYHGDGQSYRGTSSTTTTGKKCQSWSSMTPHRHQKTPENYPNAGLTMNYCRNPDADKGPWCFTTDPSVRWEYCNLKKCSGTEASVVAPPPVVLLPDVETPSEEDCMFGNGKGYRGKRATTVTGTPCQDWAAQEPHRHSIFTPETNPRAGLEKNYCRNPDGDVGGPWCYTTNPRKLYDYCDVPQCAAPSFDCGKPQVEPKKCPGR
- Assay Procedure: Kass, plasmin chromogenic substrate assay
- Format: biochemical
- Test Settings: substrate H-D-Val-Leu-Lys-p-nitroanilide

Consider the following illustrative entries.
{"columns": ["Compound", "Readout Type", "Val"],
 "data": [
  ["O=C(O)CN[C@H](CC1CCCCC1)C(=O)N1CCC[C@H]1C(=O)NCC1CCNCC1", "Kass × 10^6 (L/mole) Plasmin", "< 0.001 × 10^6 L/mole"],
  ["Cl.N=C(N)c1ccc(CNC(=O)[C@@H]2C[C@@H]3CCCC[C@@H]3N2C(=O)[C@@H](CC2CCCCC2)NCC(=O)O)cc1 (relative stereo)", "Kass × 10^6 (L/mole) Plasmin", "0.84 × 10^6 L/mole"],
  ["N=C(N)c1ccc(CNC(=O)[C@@H]2C[C@H](Oc3ccccc3)CN2C(=O)[C@H]2CCCCN2)cc1 (relative stereo)", "Kass × 10^6 (L/mole) Plasmin", "0.042 × 10^6 L/mole"]
]}

(Q) Could you share what Kass × 10^6 (L/mole) Plasmin was measured for `N=C(N)c1ccc(CCNC(=O)[C@@H]2CCCN2C(=O)[C@@H]2NCC[C@@H]3CCCC[C@@H]32)cc1` , tested on Human plasmin (Homo sapiens, UniProt P00747)?
(A) < 0.001 × 10^6 L/mole

(Q) Could you share what Kass × 10^6 (L/mole) Plasmin was measured for Cl.N=C(N)c1ccc(CCCNC(=O)C2CCCN2C(=O)C2NCCC3CCCCC32)cc1 (centres unmarked) , tested on Human plasmin (Homo sapiens, UniProt P00747)?
(A) < 0.001 × 10^6 L/mole
